Target: BDNF/NT-3 growth factors receptor (Homo sapiens) (UniProt Q16620)
Sequence (Q16620 32-822 limits assumed): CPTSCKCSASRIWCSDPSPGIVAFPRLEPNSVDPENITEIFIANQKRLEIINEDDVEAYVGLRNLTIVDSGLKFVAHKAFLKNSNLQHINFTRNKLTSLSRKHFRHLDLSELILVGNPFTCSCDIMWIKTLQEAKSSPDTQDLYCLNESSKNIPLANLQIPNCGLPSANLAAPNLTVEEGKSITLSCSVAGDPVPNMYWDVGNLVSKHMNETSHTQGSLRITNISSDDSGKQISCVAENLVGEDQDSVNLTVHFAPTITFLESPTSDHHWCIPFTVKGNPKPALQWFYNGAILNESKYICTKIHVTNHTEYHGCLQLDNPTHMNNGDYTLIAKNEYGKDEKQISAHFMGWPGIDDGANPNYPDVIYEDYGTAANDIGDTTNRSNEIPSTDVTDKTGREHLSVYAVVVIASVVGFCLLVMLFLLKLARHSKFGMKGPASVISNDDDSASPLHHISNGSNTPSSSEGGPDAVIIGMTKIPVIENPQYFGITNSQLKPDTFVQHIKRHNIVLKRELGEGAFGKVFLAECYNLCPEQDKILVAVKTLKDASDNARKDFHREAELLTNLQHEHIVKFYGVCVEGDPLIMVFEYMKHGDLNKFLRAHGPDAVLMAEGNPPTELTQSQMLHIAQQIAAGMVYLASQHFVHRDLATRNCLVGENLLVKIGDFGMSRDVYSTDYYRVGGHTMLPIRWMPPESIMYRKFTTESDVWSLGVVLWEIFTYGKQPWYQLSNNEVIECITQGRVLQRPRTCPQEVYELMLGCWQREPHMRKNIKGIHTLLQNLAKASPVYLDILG
Assay: Inhibition of TRK-B (unknown origin) assessed as remaining activity at 1 uM using fluorescein-poly GAT as substrate in presence of ATP by TR-FRET assay relative to control
Property Name: Activity (%)

compound_structure=O=C(NCc1cn(CC(=O)N2CCCCC2)c2ccc(F)cc12)Nc1ccc(F)cc1F value=106
compound_structure=COc1ccc(NC(=O)NCc2cn(CC(=O)N3CCN(C)CC3)c3ccc(OC)cc23)cc1 value=108
compound_structure=CN1CCN(C(=O)Cn2cc(CNC(=O)Nc3ccc(F)cc3F)c3cc(F)ccc32)CC1 value=106
compound_structure=COc1ccc(NC(=O)NCc2cn(CC(=O)N3CCCCC3)c3ccc(F)cc23)cc1 value=80.1
